meta.source: patent US20060234323A1

system.tested: wild type luciferase from Photinus pyralis (QuantiLum recombinant luciferase) (Photinus pyralis, UniProt P08659)
Sequence (P08659 whole entry): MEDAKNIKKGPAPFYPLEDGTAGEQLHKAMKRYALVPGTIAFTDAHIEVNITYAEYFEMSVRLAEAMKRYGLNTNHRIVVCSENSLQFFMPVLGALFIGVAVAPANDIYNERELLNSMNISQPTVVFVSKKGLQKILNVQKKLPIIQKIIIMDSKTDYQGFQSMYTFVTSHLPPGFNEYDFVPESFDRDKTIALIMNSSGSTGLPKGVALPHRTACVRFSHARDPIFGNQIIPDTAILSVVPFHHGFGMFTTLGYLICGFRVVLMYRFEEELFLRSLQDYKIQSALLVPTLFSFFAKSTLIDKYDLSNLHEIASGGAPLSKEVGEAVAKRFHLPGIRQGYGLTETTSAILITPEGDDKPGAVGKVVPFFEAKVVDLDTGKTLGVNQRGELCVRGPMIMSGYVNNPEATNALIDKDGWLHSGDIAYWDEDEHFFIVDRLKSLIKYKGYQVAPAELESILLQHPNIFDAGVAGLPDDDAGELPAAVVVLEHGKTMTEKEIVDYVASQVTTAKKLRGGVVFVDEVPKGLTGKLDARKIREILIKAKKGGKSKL
Type: biochemical
test.context: with PPi; metal salt replacing MgSO4; MgSO4 reactions employed NaATP; read-out: ATP Km
Classify as follows. Reported Km greater than or equal to 1000 µM: T. Reported Km below: F.

Example entries begin here.
[Ca+2].[Cl-].[Cl-] [CaCl2] : T
[Cl-].[Cl-].[Zn+2] [ZnCl2] : F

Kindly consider the entry below.
I'd appreciate it if you could say whether [Cl-].[Cl-].[Sr+2] [SrCl2] has Km at least equal to 1000 µM.
T

###

system.tested: wild type luciferase from Photinus pyralis (QuantiLum recombinant luciferase) (Photinus pyralis, UniProt P08659)
Type: biochemical
test.context: NT (no inhibitor); metal salt replacing MgSO4; MgSO4 reactions employed NaATP; read-out: ATP Km
test.readout: log10(Km) (log10 of the value in µM)
Each number you see is log10 of Km, and the unit inside the log is µM.

Worked cases, answers included:
[Cl-].[Cl-].[Sr+2] : 2.57
[Cl-].[Cl-].[Mg+2] : 2.06
[Ca+2].[Cl-].[Cl-] : 3.28

Dear colleague, please send me the reported log10(Km) for `O=S(=O)([O-])[O-].[Mg+2]` when you can.
1.59

Specify measured log10(Km) for `[Cl][Mn][Cl]` .
2.08

Supply measured log10(Km) of `[Cl-].[Cl-].[Zn+2]` in your reply.
1.80

Answer with reported log10(Km) of `[Cl][Ni][Cl]`
2.96

###

system.tested: wild type luciferase from Photinus pyralis (QuantiLum recombinant luciferase) (Photinus pyralis)
Format: biochemical
test.context: with AMP; metal salt replacing MgSO4; MgSO4 reactions employed NaATP; read-out: ATP Km
# note: boundary value 600 µM maps to F; Km below it maps to T

Check out these entries, answers already filled in.
[Cl][Ni][Cl] : F
[Cl-].[Cl-].[Mg+2] : T
O=S(=O)([O-])[O-].[Mg+2] : T

For `[Cl][Mn][Cl]` , is the recorded Km below the cut-off of 600 µM?
T

A record lists `[Ca+2].[Cl-].[Cl-]` . Is its Km below 600 µM?
F

Determine whether this molecule shows Km lower than 600 µM (ties excluded): `[Cl-].[Cl-].[Sr+2]`
T

###

system.tested: wild type luciferase from Photinus pyralis (QuantiLum recombinant luciferase) (Photinus pyralis, UniProt P08659)
Format: biochemical
test.context: with AMP + PPi; metal salt replacing MgSO4; MgSO4 reactions employed NaATP; read-out: ATP Km
Param label: returns class 1 when Km < 1000 µM, returns class 0 otherwise, including exact equality.

Some entries whose results are on file:
O=S(=O)([O-])[O-].[Mg+2] : class 1
[Cl][Ni][Cl] : class 0
[Cl][Mn][Cl] : class 1
[Cl-].[Cl-].[Zn+2] : class 0
[Ca+2].[Cl-].[Cl-] : class 0

Dear reviewer, please state whether `[Cl-].[Cl-].[Mg+2]` has Km strictly beneath 1000 µM.
class 1

Identify whether the molecule `[Cl-].[Cl-].[Sr+2]` records Km below 1000 µM.
class 0

###

system.tested: thermostable luciferase (Luc146-1H2) (Photuris pensylvanica)
Assay type: biochemical, Photuris pennsylvanica
test.context: No PPi; 1 mM AMP, 2 mM 5′AMPS, 2 mM ADP S, 5 mM dATP; ATP 0 to 1.67 mM
test.readout: Km
Write your answer as a measured quantity: the number, then the unit.

Consider the worked cases shown below.
Nc1ncnc2c1ncn2[C@@H]1O[C@H](COP(O)(O)=S)[C@@H](O)[C@H]1O [5′AMPS, adenosine 5′-O-thiomonophosphate] : 91 µM
Nc1ncnc2c1ncn2[C@H]1C[C@H](O)[C@@H](COP(=O)(O)OP(=O)(O)OP(=O)(O)O)O1 [dATP, deoxyadenosine triphosphate] : 127 µM
Nc1ncnc2c1ncn2[C@@H]1O[C@H](COP(=O)(O)OP(O)(O)=S)[C@@H](O)[C@H]1O [ADP S, adenosine 5′-[β-thio] diphosphate] : 93 µM

Now let's try a different one.
Return Km (reported value) for this compound: Nc1ncnc2c1ncn2[C@@H]1O[C@H](COP(=O)(O)O)[C@@H](O)[C@H]1O [AMP, adenosine monophosphate]
109 µM

###

system.tested: thermostable luciferase (Luc146-1H2) (Photuris pensylvanica, UniProt Q27757)
Sequence (Q27757 whole entry): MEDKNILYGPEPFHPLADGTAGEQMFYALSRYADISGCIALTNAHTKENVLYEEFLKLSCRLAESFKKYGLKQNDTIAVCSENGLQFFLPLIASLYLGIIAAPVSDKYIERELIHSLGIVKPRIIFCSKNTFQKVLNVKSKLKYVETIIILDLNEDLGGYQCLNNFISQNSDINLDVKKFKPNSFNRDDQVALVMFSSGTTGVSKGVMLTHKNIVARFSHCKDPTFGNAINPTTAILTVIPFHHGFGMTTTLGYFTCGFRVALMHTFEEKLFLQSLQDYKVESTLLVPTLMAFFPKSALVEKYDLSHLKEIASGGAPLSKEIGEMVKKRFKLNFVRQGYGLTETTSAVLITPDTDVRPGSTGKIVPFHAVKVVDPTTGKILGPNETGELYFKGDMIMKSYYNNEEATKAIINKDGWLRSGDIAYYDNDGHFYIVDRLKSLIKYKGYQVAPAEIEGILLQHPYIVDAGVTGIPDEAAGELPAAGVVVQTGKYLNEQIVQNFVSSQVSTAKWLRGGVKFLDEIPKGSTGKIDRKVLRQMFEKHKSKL
Assay type: biochemical, Photuris pennsylvanica
test.readout: increase of the luciferase Km for ATP

These solved cases illustrate the format of a correct answer.
Nc1ncnc2c1ncn2[C@H]1C[C@H](O)[C@@H](COP(=O)(O)OP(=O)(O)OP(=O)(O)O)O1 [dATP, deoxyadenosine triphosphate] : ~10 fold
Nc1ncnc2c1ncn2[C@@H]1O[C@H](COP(=O)(O)O)[C@@H](O)[C@H]1O [AMP, adenosine monophosphate] : ~10 fold

Supply reported increase of the luciferase Km for ATP belonging to this compound: Nc1ncnc2c1ncn2[C@@H]1O[C@H](COP(O)(O)=S)[C@@H](O)[C@H]1O [5′AMPS, adenosine 5′-O-thiomonophosphate]
~10 fold

Look up increase of the luciferase Km for ATP of Nc1ncnc2c1ncn2[C@@H]1O[C@H](COP(=O)(O)OP(O)(O)=S)[C@@H](O)[C@H]1O [ADP S, adenosine 5′-[β-thio] diphosphate] and report it.
~10 fold

Give the measured increase of the luciferase Km for ATP for `O=P(O)(O)OP(=O)(O)O`
≤ 2 fold

###

system.tested: thermostable luciferase (Luc146-1H2) (Photuris pensylvanica)
Assay type: biochemical, Photuris pennsylvanica
test.context: with 50 μM PPi; 1 mM AMP, 2 mM 5′AMPS, 2 mM ADP S, 5 mM dATP; ATP 0 to 1.67 mM
Reported Km by item:
Give the value; after it, write the unit.

Nc1ncnc2c1ncn2[C@@H]1O[C@H](COP(=O)(O)OP(O)(O)=S)[C@@H](O)[C@H]1O [ADP S, adenosine 5′-[β-thio] diphosphate] : 581 µM

Determine from records and report Km for Nc1ncnc2c1ncn2[C@H]1C[C@H](O)[C@@H](COP(=O)(O)OP(=O)(O)OP(=O)(O)O)O1 [dATP, deoxyadenosine triphosphate]
232 µM

Specify measured Km for Nc1ncnc2c1ncn2[C@@H]1O[C@H](COP(=O)(O)O)[C@@H](O)[C@H]1O [AMP, adenosine monophosphate] .
1700 µM

Report measured Km; entry is Nc1ncnc2c1ncn2[C@@H]1O[C@H](COP(O)(O)=S)[C@@H](O)[C@H]1O [5′AMPS, adenosine 5′-O-thiomonophosphate]
1070 µM

###

system.tested: wild type luciferase from Photinus pyralis (QuantiLum recombinant luciferase) (Photinus pyralis, UniProt P08659)
Type: biochemical
test.context: with PPi; metal salt replacing MgSO4; MgSO4 reactions employed NaATP; read-out: ATP Km
test.readout: Km
Report as: number unit

Observe how each entry below is paired with its result.
[Cl-].[Cl-].[Mg+2] : 276 µM
[Cl][Mn][Cl] : 170 µM
O=S(=O)([O-])[O-].[Mg+2] : 128 µM

Retrieve Km measured for `[Cl][Ni][Cl]` and print it.
2420 µM
